- testDetails: chemical genetic growth profiling, strain panel (AID 1159580);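 also: tested at 20 µM; growth read once vehicle control cultures reached saturation at 30 °C; 1 = growth at the plate median or of vehicle wells; lower values mean less growth of the strain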
- settings: S. cerevisiae deletion strains, growth OD, locus YDL074C, strain BRE1, hits give low values
Out of some 5,500 compounds screened, about 2,000 (36%) were called active. Another 18% or so got no clear call; they are omitted. Some of the results follow.
Reported normalized growth values follow for various compounds
endpointName: normalized growth

>  <compound>
COC(=O)C[C@H]1C(C)(C)C(OC(C)=O)[C@]2(O)C=C3C4CC(=O)O[C@@H](c5ccoc5)[C@]4(C)CCC3[C@@]1(C)C2=O (some centres undefined)

>  <reading>
1 (inactive)

$$$$
>  <compound>
O=C1c2ccccc2C(=O)c2c1ccc(O)c2O

>  <reading>
0.178 (active)

$$$$
>  <compound>
CNC(=O)CSP(=S)(OC)OC

>  <reading>
0.971 (inactive)

$$$$
>  <compound>
O=C1c2ccc(O)c(O)c2C(=O)c2c(O)ccc(O)c21

>  <reading>
1 (inactive)

$$$$
